Consider the following compounds and their measured IC50 readings.
- Test system: HepG2
- Procedure summary: Antiproliferative activity against human HepG2 cells incubated for 48 hrs by MTT assay
- Format: functional, cell-based
- Experimental conditions: HepG2, 48 h

A selection of reference data follows.
- COc1cc([C@@H]2c3cc4c(cc3C[C@H]3COC(=O)[C@@H]32)OCO4)cc(OC)c1OC(=O)NCC(=O)N1CCN(c2ccc([N+](=O)[O-])cc2)CC1: 210 nM
- COc1cc([C@@H]2c3cc4c(cc3[C@@H](O[C@@H]3CC[C@@H](O)[C@H](C(C)C)O3)[C@H]3COC(=O)[C@H]23)OCO4)cc(OC)c1O: 41.6 nM

Now consider a different compound.
IC50 recorded for this compound, COc1cc([C@@H]2c3cc4c(cc3[C@H](O[C@H]3CC[C@@H](O)[C@H](C)O3)[C@H]3COC(=O)[C@H]23)OCO4)cc(OC)c1OC , is 41.6 nM
